Reference source: paper PMC5045448

- protocol: in vivo
- Parameters: species or system Sprague-Dawley rats
- measurement_setup: Sprague-Dawley, rat, ip, 10 mg/kg
endpoint: AUC(0-t) (ng·h/mL)

INSERT INTO assay_data (compound_structure, unit_of_measure, assay_result) VALUES
  ('C[C@@H]1CC[C@H]2[C@@H](C)C(=O)O[C@@H]3O[C@@]4(C)CC[C@@H]1[C@]32OO4', 'ng·h/mL', 43.7);

---

- protocol: in vivo
- Parameters: species or system Sprague-Dawley rats
- measurement_setup: Sprague-Dawley, rat, ip, 10 mg/kg
endpoint: Cmax

INSERT INTO results (molecule, endpoint, assay_result) VALUES
  ('C[C@@H]1CC[C@H]2[C@@H](C)C(=O)O[C@@H]3O[C@@]4(C)CC[C@@H]1[C@]32OO4 [Artemisinin]', 'Cmax', '29.1 ng/mL');

---

- protocol: in vivo
- Set-up: species or system Sprague-Dawley rats
- measurement_setup: Sprague-Dawley, rat, ip, 10 mg/kg
endpoint: Tmax (min)

INSERT INTO assay_data (compound, assay_result) VALUES
  ('C[C@@H]1CC[C@H]2[C@@H](C)C(=O)O[C@@H]3O[C@@]4(C)CC[C@@H]1[C@]32OO4 [Artemisinin]', 5);
